Tgt: Human D1 Receptor (Homo sapiens (Human))
Sequence (P21728 whole entry): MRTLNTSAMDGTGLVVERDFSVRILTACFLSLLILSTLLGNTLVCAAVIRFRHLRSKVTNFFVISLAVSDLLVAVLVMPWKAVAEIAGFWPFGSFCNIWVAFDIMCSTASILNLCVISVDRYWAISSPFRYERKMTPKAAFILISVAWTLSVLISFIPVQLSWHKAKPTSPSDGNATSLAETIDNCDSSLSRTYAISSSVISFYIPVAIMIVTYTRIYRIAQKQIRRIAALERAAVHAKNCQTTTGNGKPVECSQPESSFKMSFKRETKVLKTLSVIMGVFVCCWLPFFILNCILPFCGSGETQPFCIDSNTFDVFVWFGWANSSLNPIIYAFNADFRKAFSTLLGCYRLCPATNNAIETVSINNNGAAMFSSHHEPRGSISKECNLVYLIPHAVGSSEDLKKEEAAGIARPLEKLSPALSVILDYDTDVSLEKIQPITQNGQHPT
Test Method Notes: Human D1 receptor binding assay ([3H]-SCH23390 competition)
Experimental Parameters: over-expressing LTK human cell lines; 0.5 nM [3H]-SCH23390; 30 min at 37 °C; footnote a: geometric mean of ≥5 determinations; footnote b: single determination; read-out: Human D1 Receptor Binding, Ki (nM); Geometric mean of 2-4 determinations (unless otherwise indicated)
Measure: Ki (nM)

Cc1cc(Oc2nccc3cccnc23)ccc1-c1c(C)n[nH]c(=O)c1C (single isomer, unassigned) [Example 2] | 115
Cc1cc(Oc2nccc3ccncc23)ccc1-c1c(C)n[nH]c(=O)c1C | 141
Cc1cc(Oc2nccc3cccnc23)ccc1-c1c(C)n[nH]c(=O)c1C (single isomer, unassigned) [Example 3] | 102
Cc1c(-c2ccc(Oc3nccc4cccnc34)cc2)n(C)c(=O)[nH]c1=O | 119

A = Cc1cc(Oc2nccc3cccnc23)ccc1-c1c(C)ncnc1C
B = Cc1cc(Oc2nccc3ccccc23)ccc1-c1c(C)n[nH]c(=O)c1C
C = COc1ccc2ccnc(Oc3ccc(-c4c(C)n[nH]c(=O)c4C)c(C)c3)c2c1
D = Cc1cc(Oc2nccc3ccc(C#N)cc23)ccc1-c1c(C)n[nH]c(=O)c1C
Request: Returns the items ordered by Ki, from maximum to minimum. When ranking, write the labels in the order the request describes.
Result: D, C, A, B
(D: 334 nM, C: 186 nM, A: 105 nM, B: 7.8 nM)
